Reported protein stability index values are given for each entry in this list.
B1: MFF (parent)
chain: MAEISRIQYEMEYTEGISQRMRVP

Variants of: B1
assayOverview: protein stability index of a GFP-peptide fusion (GPS, HEK-293T) (PSI 1-6); higher = more stable;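 also: lentivirally expressed fusions sorted by FACS into six bins by GFP to DsRed ratio, PSI derived from sequencing read proportions per bin multiplied by bin number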
experimentalSetup: c terminus: a fixed tail appended
assayReadout: protein stability index

[
  {
    "seqString": "MAEISRIQYEMEYTEGISQRMRVA [P24A]",
    "assayReadout": "protein stability index",
    "readoutValue": 2.16
  },
  {
    "seqString": "MAEISRLQYEMEYTEGISQRMRVP [I7L]",
    "assayReadout": "protein stability index",
    "readoutValue": 2.29
  },
  {
    "seqString": "MAEISRIQYEMEYTEGISQRMWVP [R22W]",
    "assayReadout": "protein stability index",
    "readoutValue": 2.01
  },
  {
    "seqString": "MAEISRIQYEMEYTEGISQRMRHP [V23H]",
    "assayReadout": "protein stability index",
    "readoutValue": 2.54
  },
  {
    "seqString": "MAYISRIQYEMEYTEGISQRMRVP [E3Y]",
    "assayReadout": "protein stability index",
    "readoutValue": 2.01
  },
  {
    "seqString": "MAEISRIQYEMEFTEGISQRMRVP [Y13F]",
    "assayReadout": "protein stability index",
    "readoutValue": 2.41
  },
  {
    "seqString": "MAEISRIQYEMRYTEGISQRMRVP [E12R]",
    "assayReadout": "protein stability index",
    "readoutValue": 2.31
  },
  {
    "seqString": "MAEISRIQYEMEYTEGASQRMRVP [I17A]",
    "assayReadout": "protein stability index",
    "readoutValue": 3.03
  },
  {
    "seqString": "MAEISRIQYEMEYTEGISNRMRVP [Q19N]",
    "assayReadout": "protein stability index",
    "readoutValue": 3.06
  },
  {
    "seqString": "MAEISRIQYEMEYTEGISQRMRVV [P24V]",
    "assayReadout": "protein stability index",
    "readoutValue": 1.84
  },
  {
    "seqString": "MAEISRIQYEMEYTEGISPRMRVP [Q19P]",
    "assayReadout": "protein stability index",
    "readoutValue": 2.77
  },
  {
    "seqString": "MAEISRIQYEMEYTEGKSQRMRVP [I17K]",
    "assayReadout": "protein stability index",
    "readoutValue": 3.18
  },
  {
    "seqString": "MAEISNIQYEMEYTEGISQRMRVP [R6N]",
    "assayReadout": "protein stability index",
    "readoutValue": 3.27
  },
  {
    "seqString": "MAEISRIQYEMEYTEGISQRMRVH [P24H]",
    "assayReadout": "protein stability index",
    "readoutValue": 2.02
  },
  {
    "seqString": "MNEISRIQYEMEYTEGISQRMRVP [A2N]",
    "assayReadout": "protein stability index",
    "readoutValue": 3.09
  },
  {
    "seqString": "MAEISRINYEMEYTEGISQRMRVP [Q8N]",
    "assayReadout": "protein stability index",
    "readoutValue": 2.85
  },
  {
    "seqString": "MAEISRIQYEMEYTEGISQRMREP [V23E]",
    "assayReadout": "protein stability index",
    "readoutValue": 2.73
  },
  {
    "seqString": "MAEISRIQYEMEYTIGISQRMRVP [E15I]",
    "assayReadout": "protein stability index",
    "readoutValue": 2.11
  },
  {
    "seqString": "MAEISRIQQEMEYTEGISQRMRVP [Y9Q]",
    "assayReadout": "protein stability index",
    "readoutValue": 3.35
  },
  {
    "seqString": "MAEISTIQYEMEYTEGISQRMRVP [R6T]",
    "assayReadout": "protein stability index",
    "readoutValue": 2.93
  },
  {
    "seqString": "MAEISRIQYEMEYTEGISQRMRAP [V23A]",
    "assayReadout": "protein stability index",
    "readoutValue": 2.31
  },
  {
    "seqString": "MARISRIQYEMEYTEGISQRMRVP [E3R]",
    "assayReadout": "protein stability index",
    "readoutValue": 2.39
  }
]
